Data credit: PubChem BioAssay AID1159580

# test description: chemical genetic growth profiling, strain panel (AID 1159580);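 further: tested at 20 µM; growth read once vehicle control cultures reached saturation at 30 °C; 1 = growth at the plate median or of vehicle wells; lower values mean less growth of the strain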
# condition set: S. cerevisiae deletion strains, growth OD, locus YER123W, strain YCK3, hits give low values
About 2,000 (36%) of roughly 5,500 compounds were called active. Inconclusive results (about 18%) are left out. The list shows a part of the results.
Hi there, I'd appreciate the recorded normalized growth for every entry that follows.
Reply with just the number.

Please look up its normalized growth: S=C(Nc1cc(Cl)c(Cl)cc1Cl)Nc1ccccc1Br
0.833

Please look up its normalized growth: CC1C/C(=N/Nc2ccc(Br)cc2)c2cc(Cl)ccc2S1 (configuration not stated)
0.166

Please look up its normalized growth: O=C1/C(=C/c2ccc(C(F)(F)F)cc2)COc2ccccc21
0.886

Please look up its normalized growth: S=C(NNc1ccccc1)Nc1cc(Cl)ccc1Cl
0.921

Please look up its normalized growth: Cc1onc(-c2ccccc2)c1C(=O)Sc1ccc(C(F)(F)F)cn1
0.465

Please look up its normalized growth: Cc1ccc(N2C(=O)CSC2c2ccc(Cl)c(Cl)c2)cc1Cl (configuration not stated)
0.956

Please look up its normalized growth: COc1ccc(OC)c(-c2ccn[nH]2)c1OCc1ccccc1
0.762

Please look up its normalized growth: CS(=O)(=O)c1sc(C(=O)Sc2ccc(Cl)cc2)c2c1C=CCC2
0.368

Please look up its normalized growth: CS(=O)(=O)/C(C#N)=C/c1ccccc1OCc1c(Cl)cccc1Cl
0.913

Please look up its normalized growth: O=[N+]([O-])c1ccc(-c2csc(Nc3ccncc3)n2)cc1
0.982

Please look up its normalized growth: O=C(Nc1ccc(F)c(Cl)c1)c1ccccc1O
0.76

Please look up its normalized growth: O=C1/C(=C/c2cccs2)COc2ccccc21
0.73
